- Tested on: HepG2
- test: Antiproliferative activity against human HepG2 cells after 48 hrs by resazurin dye-based fluorescence assay
- Format: functional, cell-based
- condition.details: HepG2, 48 h
measured.parameter: IC50 (µM)

mol.smiles | target | experimental.result
O=C(N/N=C/c1cccnc1)c1cc2ccccc2oc1=O | HepG2 | 15.9
CCOc1ccc(NC(=O)c2cc3ccccc3oc2=O)cc1 | HepG2 | 10.4
O=C(N/N=C/c1ccncc1)c1cc2ccccc2oc1=O | HepG2 | 17.2
O=C(N/N=C/c1cccnc1)c1cc2cc([N+](=O)[O-])ccc2oc1=O | HepG2 | 17
O=C(N/N=C/c1cccnc1)c1cc2cc(Br)ccc2oc1=O | HepG2 | 19
Cc1noc(NS(=O)(=O)c2ccc(NC(=O)c3cc4cc(Br)ccc4oc3=O)cc2)c1C | HepG2 | 8.8
O=C(N/N=C/c1cccnc1)c1cc2ccc(O)cc2oc1=O | HepG2 | 18.4
CCOc1ccc(NC(=O)c2cc3cc([N+](=O)[O-])ccc3oc2=O)cc1 | HepG2 | 28.3

* * *

Each entry below carries its recorded Activity.
- Test system: TERT-RPE1
- test: Cytotoxicity against hTERT-RPE1 cells at 12.50 uM after 48 hrs by resazurin dye-based fluorescence assay relative to control
- Format: cell-based
- condition.details: human, tert-rpe1, 48 h, 12.5 µM
measured.parameter: Activity (%)

mol.smiles | experimental.result
Cc1noc(NS(=O)(=O)c2ccc(NC(=O)c3cc4ccccc4oc3=O)cc2)c1C | 13.72
Cc1noc(NS(=O)(=O)c2ccc(NC(=O)c3cc4ccc(O)cc4oc3=O)cc2)c1C | 5.89
CCOc1ccc(NC(=O)c2cc3cc(Br)ccc3oc2=O)cc1 | 9.63
O=C(N/N=C/c1cccnc1)c1cc2ccc(O)cc2oc1=O | 12.79
O=C(N/N=C/c1cccnc1)c1cc2ccccc2oc1=O | 8.28
CCOc1ccc(NC(=O)c2cc3ccc(O)cc3oc2=O)cc1 | 13.91

* * *

- test: Selectivity index, ratio of IC50 for hTERT-RPE1 cells to IC50 for human CCRF-CEM cells
- Format: toxicity
- condition.details: hTERT-RPE1 cells versus CCRF-CEM cells, read-out: Ratio IC50
Each entry below carries its recorded selectivity ratio.

mol.smiles | selectivity ratio
CCOc1ccc(NC(=O)c2cc3cc([N+](=O)[O-])ccc3oc2=O)cc1 | > 3.78
CCOc1ccc2nc(Cl)c(/C=N/NC(=O)c3cc4ccccc4oc3=O)cc2c1 | > 7.92
O=C(N/N=C/c1cccnc1)c1cc2cc(Br)ccc2oc1=O | > 13.5
CCOc1ccc2nc(Cl)c(/C=N/NC(=O)c3cc4cc(Br)ccc4oc3=O)cc2c1 | > 3.87
CCOc1ccc(NC(=O)c2cc3ccc(O)cc3oc2=O)cc1 | > 3.97

* * *

Each entry below carries its recorded selectivity ratio.
- test: Selectivity index, ratio of IC50 for hTERT-RPE1 cells to IC50 for human PANC1 cells
- Assay type: toxicity
- condition.details: hTERT-RPE1 cells versus PANC1 cells, read-out: Ratio IC50

compound | selectivity ratio
CCOc1ccc(NC(=O)c2cc3cc([N+](=O)[O-])ccc3oc2=O)cc1 | > 4.13
COc1cccc2c1C(=O)c1c(O)c3c(c(O)c1C2=O)C[C@@](O)(C(=O)CO)C[C@@H]3O[C@H]1C[C@H](N)[C@H](O)[C@H](C)O1 [DOXORUBICIN] | < 0.91
Cc1noc(NS(=O)(=O)c2ccc(NC(=O)c3cc4ccc(O)cc4oc3=O)cc2)c1C | > 3.09
O=C(N/N=C/c1cccnc1)c1cc2cc(Br)ccc2oc1=O | > 5.99
Cc1noc(NS(=O)(=O)c2ccc(NC(=O)c3cc4cc([N+](=O)[O-])ccc4oc3=O)cc2)c1C | > 4.19
CCOc1ccc(NC(=O)c2cc3cc(Br)ccc3oc2=O)cc1 | > 2.97
CCOc1ccc2nc(Cl)c(/C=N/NC(=O)c3cc4ccc(O)cc4oc3=O)cc2c1 | > 388
O=C(N/N=C/c1cccnc1)c1cc2ccc(O)cc2oc1=O | > 19.8
Cc1noc(NS(=O)(=O)c2ccc(NC(=O)c3cc4cc(Br)ccc4oc3=O)cc2)c1C | > 1.74
Cc1noc(NS(=O)(=O)c2ccc(NC(=O)c3cc4ccccc4oc3=O)cc2)c1C | > 2.51
O=C(N/N=C/c1cccnc1)c1cc2cc([N+](=O)[O-])ccc2oc1=O | > 4.24
O=C(N/N=C/c1ccncc1)c1cc2ccccc2oc1=O | > 5.13
O=C(N/N=C/c1ccncc1)c1cc2cc(Br)ccc2oc1=O | > 1.94
O=C(N/N=C/c1cccnc1)c1cc2ccccc2oc1=O | > 3.27
CCOc1ccc2nc(Cl)c(/C=N/NC(=O)c3cc4ccccc4oc3=O)cc2c1 | > 1.67
CCOc1ccc2nc(Cl)c(/C=N/NC(=O)c3cc4cc(Br)ccc4oc3=O)cc2c1 | > 2.94
CCOc1ccc2nc(Cl)c(/C=N/NC(=O)c3cc4cc([N+](=O)[O-])ccc4oc3=O)cc2c1 | > 4.75
O=C(N/N=C/c1cc2ccccc2nc1Cl)c1cc2cc([N+](=O)[O-])ccc2oc1=O | > 1.29
O=C(N/N=C/c1ccncc1)c1cc2cc([N+](=O)[O-])ccc2oc1=O | > 1.92
O=C(N/N=C/c1cc2ccccc2nc1Cl)c1cc2cc(Br)ccc2oc1=O | > 9.18
CCOc1ccc(NC(=O)c2cc3ccccc3oc2=O)cc1 | > 3.74
CCOc1ccc(NC(=O)c2cc3ccc(O)cc3oc2=O)cc1 | > 3.5

* * *

- test: Selectivity index, ratio of IC50 for hTERT-RPE1 cells to IC50 for human HepG2 cells
- Type: toxicity
- condition.details: hTERT-RPE1 cells versus HepG2 cells, read-out: Ratio IC50

mol.smiles | selectivity ratio
CCOc1ccc(NC(=O)c2cc3cc([N+](=O)[O-])ccc3oc2=O)cc1 | > 1.77
O=C(N/N=C/c1ccncc1)c1cc2ccccc2oc1=O | > 2.91
CCOc1ccc2nc(Cl)c(/C=N/NC(=O)c3cc4ccccc4oc3=O)cc2c1 | > 1.51
O=C(N/N=C/c1cccnc1)c1cc2ccccc2oc1=O | > 3.14
O=C(N/N=C/c1cccnc1)c1cc2ccc(O)cc2oc1=O | > 2.72
O=C(N/N=C/c1cccnc1)c1cc2cc(Br)ccc2oc1=O | > 2.63
O=C(N/N=C/c1cc2ccccc2nc1Cl)c1cc2cc([N+](=O)[O-])ccc2oc1=O | > 2.2
Cc1noc(NS(=O)(=O)c2ccc(NC(=O)c3cc4cc(Br)ccc4oc3=O)cc2)c1C | > 5.68
O=C(N/N=C/c1cccnc1)c1cc2cc([N+](=O)[O-])ccc2oc1=O | > 2.94
Cc1noc(NS(=O)(=O)c2ccc(NC(=O)c3cc4ccccc4oc3=O)cc2)c1C | > 2.09

* * *

Each entry below carries its recorded selectivity ratio.
- test: Selectivity index, ratio of IC50 for hTERT-RPE1 cells to IC50 for human HepG2 cells
- Type: toxicity
- condition.details: hTERT-RPE1 cells versus HepG2 cells, read-out: Ratio IC50

mol.smiles | selectivity ratio
CCOc1ccc(NC(=O)c2cc3ccc(O)cc3oc2=O)cc1 | > 2.88
Cc1noc(NS(=O)(=O)c2ccc(NC(=O)c3cc4cc([N+](=O)[O-])ccc4oc3=O)cc2)c1C | > 3.34
CCOc1ccc2nc(Cl)c(/C=N/NC(=O)c3cc4ccc(O)cc4oc3=O)cc2c1 | > 2.6

* * *

- test: Selectivity index, ratio of IC50 for hTERT-RPE1 cells to IC50 for human CCRF-CEM cells
- Type: toxicity
- condition.details: hTERT-RPE1 cells versus CCRF-CEM cells, read-out: Ratio IC50
Each entry below carries its recorded selectivity ratio.
measured.parameter: selectivity ratio

mol.smiles | experimental.result
CCOc1ccc2nc(Cl)c(/C=N/NC(=O)c3cc4ccc(O)cc4oc3=O)cc2c1 | > 2.92
O=C(N/N=C/c1ccncc1)c1cc2ccccc2oc1=O | > 16.1
CCOc1ccc2nc(Cl)c(/C=N/NC(=O)c3cc4cc([N+](=O)[O-])ccc4oc3=O)cc2c1 | > 3.19
CCOc1ccc(NC(=O)c2cc3cc(Br)ccc3oc2=O)cc1 | > 2.3
Cc1noc(NS(=O)(=O)c2ccc(NC(=O)c3cc4ccccc4oc3=O)cc2)c1C | > 1.88
O=C(N/N=C/c1cccnc1)c1cc2cc([N+](=O)[O-])ccc2oc1=O | > 2.92
O=C(N/N=C/c1cccnc1)c1cc2ccccc2oc1=O | > 5.05
O=C(N/N=C/c1cccnc1)c1cc2ccc(O)cc2oc1=O | > 3.55

* * *

- Test system: TERT-RPE1
- test: Cytotoxicity against hTERT-RPE1 cells at 12.50 uM after 48 hrs by resazurin dye-based fluorescence assay relative to control
- Type: cell-based
- condition.details: human, tert-rpe1, 48 h, 12.5 µM
measured.parameter: Activity (%)

mol.smiles | target | endpoint.unit | experimental.result
O=C(N/N=C/c1cccnc1)c1cc2cc([N+](=O)[O-])ccc2oc1=O | TERT-RPE1 | % | 2.22
Cc1noc(NS(=O)(=O)c2ccc(NC(=O)c3cc4cc([N+](=O)[O-])ccc4oc3=O)cc2)c1C | TERT-RPE1 | % | 2.5
CCOc1ccc2nc(Cl)c(/C=N/NC(=O)c3cc4cc([N+](=O)[O-])ccc4oc3=O)cc2c1 | TERT-RPE1 | % | 3.92
CCOc1ccc2nc(Cl)c(/C=N/NC(=O)c3cc4ccccc4oc3=O)cc2c1 | TERT-RPE1 | % | 1.23
CCOc1ccc(NC(=O)c2cc3cc([N+](=O)[O-])ccc3oc2=O)cc1 | TERT-RPE1 | % | 6.01
